# Experiment: in vitro
# Recorded conditions: human, Caco-2
In this section we review reported recovery values for a set of compounds.
Measured parameter: recovery (%)

[[record]]
compound = "C[C@H]1O[C@@H](O[C@H]2[C@@H](O)C[C@H](O[C@H]3[C@@H](O)C[C@H](O[C@H]4CC[C@@]5(C)[C@H](CC[C@@H]6[C@@H]5C[C@@H](O)[C@]5(C)[C@@H](C7=CC(=O)OC7)CC[C@]65O)C4)O[C@@H]3C)O[C@@H]2C)C[C@H](O)[C@@H]1O"
number = 103

[[record]]
compound = "COCCc1ccc(OCC(O)CNC(C)C)cc1 (centres unmarked)"
number = 106


----------
# Experiment: in vitro
# Recorded conditions: human, Caco-2
Measured parameter: Papp B→A at 2 h, 5 μM (×10⁻⁶ cm/s)

[[record]]
compound = "C[C@H]1O[C@@H](O[C@H]2[C@@H](O)C[C@H](O[C@H]3[C@@H](O)C[C@H](O[C@H]4CC[C@@]5(C)[C@H](CC[C@@H]6[C@@H]5C[C@@H](O)[C@]5(C)[C@@H](C7=CC(=O)OC7)CC[C@]65O)C4)O[C@@H]3C)O[C@@H]2C)C[C@H](O)[C@@H]1O"
number = 15.6

[[record]]
compound = "COCCc1ccc(OCC(O)CNC(C)C)cc1 (centres unmarked)"
number = 21.8


----------
# Experiment: Metabolic stability in rat liver microsomes
# Type: in vitro ADME
# Recorded conditions: male, SD, pooled
Measured parameter: half-life at 1 h

[[record]]
molecule = "COc1cc(Nc2c(C#N)cnc3cc(OCCCN4CCN(C)CC4)c(OC)cc23)c(Cl)cc1Cl [bosutinib]"
result = "5.3 min"


----------
# Test system: P-gp (MDR1)
# Experiment: in vitro
# Recorded conditions: dog, MDCK-MDR1
The following molecules are listed with their measured Papp A→B at 2 h, 1 μM values.
Measured parameter: Papp A→B at 2 h, 1 μM (nm/s)

[[record]]
molecule = "C[C@H]1O[C@@H](O[C@H]2[C@@H](O)C[C@H](O[C@H]3[C@@H](O)C[C@H](O[C@H]4CC[C@@]5(C)[C@H](CC[C@@H]6[C@@H]5C[C@@H](O)[C@]5(C)[C@@H](C7=CC(=O)OC7)CC[C@]65O)C4)O[C@@H]3C)O[C@@H]2C)C[C@H](O)[C@@H]1O"
number = 2.6

[[record]]
molecule = "COCCc1ccc(OCC(O)CNC(C)C)cc1 (centres unmarked)"
number = 279


----------
# Experiment: pKa determination by pH-metric method
# Assay type: physicochemical
# Recorded conditions: pH 2, pH-metric method, range pH 2-12; read-out: pKa2
Measured parameter: pKa

[[record]]
molecule_smiles = "COc1ccccc1OCCCN1CCN(C)CC1"
number = 8.1


----------
# Experiment: Plasma protein binding by equilibrium dialysis, human
# Format: in vitro ADME
# Recorded conditions: both sexes, 5 μM, equilibrium dialysis, read-out: fu, plasma % / %Unbound
Measured parameter: fraction unbound at 6 h, 5 µM

[[record]]
molecule_smiles = "COc1cc(Nc2c(C#N)cnc3cc(OCCCN4CCN(C)CC4)c(OC)cc23)c(Cl)cc1Cl"
measured_parameter = "fraction unbound at 6 h, 5 µM"
number = 0.045

